Every entry's value here was drawn from PubChem BioAssay (NCI).

Tested on: HL-60(TB) leukemia
Assay: NCI-60 one-dose screen, 48 h
Conditions: 10 µM unless noted
This is part of a sample that, as a whole, favours compounds with a hit. Of some 83,000 tested, about 20% had one in any assay. Calls of active or inactive are those of the source. Rule for the calls: active = growth percent below 10; inactive = the rest.
Classes used: active, inactive

- compound: "CCN(CC)CCCC(C)NC(=S)N/N=C(\\C)c1ccccn1 (configuration not stated)"
  tested target: "HL-60(TB) leukemia"
  class name: "active"
- compound: "CCN(CC)c1ccc(C2CC(c3cc(OC)c(OC)c(OC)c3)=NN2)cc1 (configuration not stated)"
  tested target: "HL-60(TB) leukemia"
  class name: "active"
- compound: "Cc1cc(N/N=C/c2nc(-c3ccc(Cl)cc3)oc2C)c2cc(Cl)ccc2n1"
  tested target: "HL-60(TB) leukemia"
  class name: "active"
- compound: "COc1ccc(-c2csc(NC(=O)CSc3nc(C)cc(=O)[nH]3)n2)cc1"
  tested target: "HL-60(TB) leukemia"
  class name: "inactive"
- compound: "CCN(CC)CCCC(Cc1ccccc1)Nc1c2ccc(Cl)cc2nc2ccc(OC)cc12 (configuration not stated)"
  tested target: "HL-60(TB) leukemia"
  class name: "inactive"
- compound: "COc1c(C(=O)Nc2ccc(C)c(Br)c2)ccc2ccccc12"
  tested target: "HL-60(TB) leukemia"
  class name: "inactive"
- compound: "N#C/C(=C1C=C/C(=N/O)C(Br)=C/1)c1ccccc1"
  tested target: "HL-60(TB) leukemia"
  class name: "active"
- compound: "COc1c2c(cc3c1C(=O)N[C@@H]1[C@@H](O)[C@@H](O)[C@H](O)C[C@@H]31)OCCO2"
  tested target: "HL-60(TB) leukemia"
  class name: "inactive"
- compound: "O=[N+]([O-])c1ccc(N2c3ccncc3Sc3ccncc32)cc1"
  tested target: "HL-60(TB) leukemia"
  class name: "inactive"
- compound: "COC1OC(C(O)C(O)CO)C(O)C(O)C1O (configuration not stated)"
  tested target: "HL-60(TB) leukemia"
  class name: "inactive"
- compound: "O=C1c2ccccc2C(=O)c2c1ccc(C(Br)Br)c2[N+](=O)[O-]"
  tested target: "HL-60(TB) leukemia"
  class name: "active"
- compound: "COc1ccc(C2=NNC(c3sc(Cl)nc3Cl)C2)cc1 (configuration not stated)"
  tested target: "HL-60(TB) leukemia"
  class name: "inactive"
- compound: "CCCCCCCCCCCCCCCCCCOc1ccccc1CC(=O)NCC[N+]1(C)CCOCC1"
  tested target: "HL-60(TB) leukemia"
  class name: "active"
- compound: "CC(=O)OC1Oc2ccccc2-c2oc(=O)c(-c3cc4ccc(N(C)C)cc4oc3=O)cc21 (configuration not stated)"
  tested target: "HL-60(TB) leukemia"
  class name: "active"
- compound: "O=C(Nc1ccc(Oc2ccc(F)cc2)c(Cl)c1)c1cnccn1"
  tested target: "HL-60(TB) leukemia"
  class name: "inactive"
- compound: "O=C1C=CC(O)=CC1=P(c1ccccc1)(c1ccccc1)c1ccccc1"
  tested target: "HL-60(TB) leukemia"
  class name: "inactive"
- compound: "O=C(N/N=C\\c1ccccc1S(=O)(=O)O)N/N=C/c1ccccc1S(=O)(=O)O"
  tested target: "HL-60(TB) leukemia"
  class name: "inactive"
- compound: "Oc1ccc(Cc2ccc(O)c3ncccc23)c2cccnc12"
  tested target: "HL-60(TB) leukemia"
  class name: "active"
- compound: "O=C1Nc2ccccc2/C1=C\\c1nc(-c2ccccc2)n2ccccc12"
  tested target: "HL-60(TB) leukemia"
  class name: "inactive"
- compound: "Nc1c(Cl)cc2c(c1Br)C(=O)c1ccccc1C2=O"
  tested target: "HL-60(TB) leukemia"
  class name: "inactive"
- compound: "CCC(C)N(CCNc1cc(OC)cc2cccnc12)CC(C)C (configuration not stated)"
  tested target: "HL-60(TB) leukemia"
  class name: "inactive"
- compound: "CCC(=O)Sc1ccccc1C(=O)Nc1ccc(Cl)cc1"
  tested target: "HL-60(TB) leukemia"
  class name: "inactive"
- compound: "NN1CCOC(c2ccccc2)C1 (configuration not stated)"
  tested target: "HL-60(TB) leukemia"
  class name: "active"
- compound: "COc1cc(C2C(C(=O)c3cccs3)=C(O)C(=O)N2CCN2CCOCC2)cc(OC)c1OC (configuration not stated)"
  tested target: "HL-60(TB) leukemia"
  class name: "inactive"
- compound: "C1CNC2CCCC2C1 (configuration not stated)"
  tested target: "HL-60(TB) leukemia"
  class name: "inactive"
- compound: "O=C(NO)c1ccc(Cn2c(=O)n(CCc3ccc(O)cc3)c(=O)c3ccccc32)cc1"
  tested target: "HL-60(TB) leukemia"
  class name: "inactive"
- compound: "CCn1c(-c2cc3c([nH]c4ccccc43)c(-c3cccc(O)c3)n2)n[nH]c1=S"
  tested target: "HL-60(TB) leukemia"
  class name: "active"
- compound: "NC(=O)c1cc(I)ccc1NC(=O)/C=C/c1ccccc1Cl"
  tested target: "HL-60(TB) leukemia"
  class name: "active"
- compound: "O=C(COc1ccc(/C=C2\\Oc3ccccc3C2=O)cc1)Nc1nccs1"
  tested target: "HL-60(TB) leukemia"
  class name: "active"
- compound: "COc1cccc(-c2cc(-c3cc4ccccc4oc3=O)nc(N)n2)c1"
  tested target: "HL-60(TB) leukemia"
  class name: "inactive"
- compound: "O=[N+]([O-])c1ccc2nc3c4ccccc4c4ccccc4c3nc2c1"
  tested target: "HL-60(TB) leukemia"
  class name: "inactive"
- compound: "O=C1c2ccccc2C(=Cc2ccccc2)c2ccccc21"
  tested target: "HL-60(TB) leukemia"
  class name: "active"
- compound: "COc1cccc2c1C(=O)c1c(O)c3c(c(O)c1C2=O)CC(O)(/C(C)=N/NC(=O)CCC(=O)N/N=C(\\C)C1(O)Cc2c(O)c4c(c(O)c2C(OC2CC(N)C(O)C(C)O2)C1)C(=O)c1c(OC)cccc1C4=O)CC3OC1CC(N)C(O)C(C)O1 (configuration not stated)"
  tested target: "HL-60(TB) leukemia"
  class name: "active"
- compound: "COc1cc2ncnc(Nc3ccc4c(cnn4C(=O)Nc4ccccc4)c3)c2cc1OC"
  tested target: "HL-60(TB) leukemia"
  class name: "inactive"
- compound: "CC(C)CCC[C@@H](C)[C@H]1CC[C@H]2[C@@H]3CC[C@H]4C/C(=N/O)CC[C@]4(C)[C@H]3CC[C@]12C"
  tested target: "HL-60(TB) leukemia"
  class name: "inactive"
- compound: "OCC1OC2C(NC(=S)N2c2ccccc2)C(O)C1O (configuration not stated)"
  tested target: "HL-60(TB) leukemia"
  class name: "inactive"
- compound: "CCN1C(=O)N(CC)C2Nn3c(s/c(=C4\\C(=O)Nc5ccccc54)c3=O)=NC21 (configuration not stated)"
  tested target: "HL-60(TB) leukemia"
  class name: "inactive"
- compound: "CCCCCC(=C/c1ccccc1)/C=N/N=C(N)N"
  tested target: "HL-60(TB) leukemia"
  class name: "active"
- compound: "COc1cc(-c2nn(-c3ccc(C)cc3)cc2C(=O)O)ccc1O"
  tested target: "HL-60(TB) leukemia"
  class name: "inactive"
- compound: "CCOC(=O)c1ccc2c(c1)nc(/C=C/c1ccc(Cl)cc1)n2-c1cc(C(C)(C)C)[nH]n1"
  tested target: "HL-60(TB) leukemia"
  class name: "inactive"
- compound: "Oc1ccc(O)c(-c2ccccc2)c1"
  tested target: "HL-60(TB) leukemia"
  class name: "inactive"
- compound: "COc1c(C(C)=O)c(OCCCCOc2c(C(C)=O)c(OC)c3ccoc3c2OC)c(OC)c2occc12"
  tested target: "HL-60(TB) leukemia"
  class name: "inactive"
